The following compounds are shown together with reported IC50 values.
Target: Cdk2/cyclin E (Homo sapiens, UniProt P24941)
Test: Biochemical kinase assay Cdk2/cyclin E
Conditions: Table 6

{"compound": "CC(C)N1CCN(NC(=O)Nc2cccc3c2C(=O)c2c-3n[nH]c2-c2ccc(OCCN3CCCC3)cc2)CC1 [Compound A23]", "measured_target": "Cdk2/cyclin E (Homo sapiens, UniProt P24941)", "IC50": "< 10 nM"}
{"compound": "CC(C)c1nn(-c2c(Cl)cc(Cl)cc2Cl)c2nc(Cc3ccc(NS(=O)(=O)CCCN4CCCC4)cc3)[nH]c(=O)c12 [Compound A38]", "measured_target": "Cdk2/cyclin E (Homo sapiens, UniProt P24941)", "IC50": "< 100 nM"}
{"compound": "CN(C)C(=O)CN1CCN(NC(=O)Nc2cccc3c2C(=O)c2c-3n[nH]c2-c2ccc(OCCN3CCCC3)cc2)CC1 [Compound A41]", "measured_target": "Cdk2/cyclin E (Homo sapiens, UniProt P24941)", "IC50": "< 100 nM"}
{"compound": "CC(C)c1nn(-c2c(Cl)cccc2Cl)c2nc(Cc3ccc(O)c(CN4CCOCC4)c3)[nH]c(=O)c12 [Compound A5]", "measured_target": "Cdk2/cyclin E (Homo sapiens, UniProt P24941)", "IC50": "< 100 nM"}
{"compound": "CC(C)c1nn(-c2c(Cl)cccc2Cl)c2nc(Cc3ccc(OCCN4CCOCC4)cc3)[nH]c(=O)c12 [Compound A2]", "measured_target": "Cdk2/cyclin E (Homo sapiens, UniProt P24941)", "IC50": "< 10 nM"}
{"compound": "CN1CCN(Cc2ccc(-c3n[nH]c4c3C(=O)c3c(NC(=O)NN5CCOCC5)cccc3-4)cc2)CC1 [Compound A49]", "measured_target": "Cdk2/cyclin E (Homo sapiens, UniProt P24941)", "IC50": "< 100 nM"}
{"compound": "CC(C)c1nn(-c2c(Cl)cc(Cl)cc2Cl)c2nc(Cc3ccc(NS(=O)(=O)CCCN4CCN(C(C)C)CC4)cc3)[nH]c(=O)c12 [Compound A39]", "measured_target": "Cdk2/cyclin E (Homo sapiens, UniProt P24941)", "IC50": "< 100 nM"}

----------
System: HCT-116 cells
Assay: Calcein AM viability assay, HCT-116
Format: cell-based
Conditions: Homo sapiens, HCT-116, 72 h, read-out: HCT-116 IC50 Viability
The following molecules are shown together with reported IC50 values.
readout_name: IC50

{"structure_as_smiles": "O=C(Nc1cccc2c1C(=O)c1c-2n[nH]c1-c1ccc(OP(=O)(O)O)cc1)NN1CCOCC1", "result": "< 1 µM"}
{"structure_as_smiles": "CC(C)c1nn(-c2c(Cl)cccc2Cl)c2nc(Cc3ccc(OP(=O)(O)O)cc3)[nH]c(=O)c12", "result": "< 1 µM"}

----------
Target: Cdk2/cyclin E (Homo sapiens, UniProt P24941)
Experiment: Biochemical kinase assay Cdk2/cyclin E
Conditions: Table 6
The following compounds are shown together with reported IC50 values.
readout_name: IC50

{"structure_as_smiles": "CC(C)c1nn(-c2c(Cl)cc(Cl)cc2Cl)c2nc(Cc3ccc(OCC(C)(C)O)cc3)[nH]c(=O)c12", "readout_name": "IC50", "result": "< 100 nM"}
{"structure_as_smiles": "CC(C)c1nn(-c2c(Cl)cc(Cl)cc2Cl)c2nc(Cc3ccc(CNC(CO)CO)n3C)[nH]c(=O)c12.Cl", "readout_name": "IC50", "result": "< 10 nM"}
{"structure_as_smiles": "O=C(Nc1cccc2c1C(=O)c1c(-c3ccc(CN4CCN(c5ccccn5)CC4)cc3)n[nH]c1-2)NN1CCOCC1", "readout_name": "IC50", "result": "< 100 nM"}
{"structure_as_smiles": "CC(C)c1nn(-c2c(Cl)cc(Cl)cc2Cl)c2nc(Cc3ccc(CN4CCN(C(C)C)CC4)n3C)[nH]c(=O)c12", "readout_name": "IC50", "result": "< 100 nM"}
{"structure_as_smiles": "Cc1cc(OCCCN2CCN(C(C)C)CC2)ccc1-c1[nH]nc2c1C(=O)c1c(NC(=O)NN3CCOCC3)cccc1-2", "readout_name": "IC50", "result": "< 10 nM"}
{"structure_as_smiles": "CC(C)c1nn(-c2c(Cl)cccc2Cl)c2nc(Cc3ccc(OCCN4CCOCC4)c(O)c3)[nH]c(=O)c12", "readout_name": "IC50", "result": "< 100 nM"}
{"structure_as_smiles": "CN1CCN(NC(=O)Nc2cccc3c2C(=O)c2c-3n[nH]c2-c2ccc(O)cc2)CC1", "readout_name": "IC50", "result": "< 100 nM"}

----------
Biological target: Cdk2/cyclin E (Homo sapiens, UniProt P24941)
Assay: Biochemical kinase assay Cdk2/cyclin E
Conditions: Table 6
Procedure: Enzymes: Cdc2/cyclin B was obtained from commercial sources. Cdk2/his-cyclin Eshort was expressed in Sf9 cells. Cdk2/cyclin A, cdk4/cyclin D1, and cdk6/cyclin D2 were expressed in Sf9 cells. Protein kinase A (catalytic subunit, from bovine heart) and protein kinase C (mixed isozymes from rat brain) were obtained from commercial sources. […] Cdk2/cyclin E, Cdk2/cyclin A, Cdk4/cyclin D1, and Cdk6/cyclin D2 activity was determined using a glutathione-sepharose capture assay. […]
pIC50: −log10 of the molar value.
The following molecules are shown together with reported pIC50 values.

{"molecule": "Cc1cc(OCCN2CCCC2)ccc1-c1[nH]nc2c1C(=O)c1c(NC(=O)NN3CCOCC3)cccc1-2 [Compound A29]", "pIC50": "> 8.00"}
{"molecule": "CC(C)N1CCN(C(=O)COc2ccc(-c3[nH]nc4c3C(=O)c3c(NC(=O)NN5CCOCC5)cccc3-4)cc2)CC1 [Compound A76]", "pIC50": "> 7.00"}
{"molecule": "CN1CCN(CCOc2ccc(-c3n[nH]c4c3C(=O)c3c(NC(=O)NN5CCN(C)CC5)cccc3-4)c(F)c2)CC1 [Compound A13]", "pIC50": "> 7.00"}
{"molecule": "Cc1noc(COc2ccc(-c3[nH]nc4c3C(=O)c3c(NC(=O)NN5CCOCC5)cccc3-4)cc2)n1 [Compound A35]", "pIC50": "> 7.00"}
{"molecule": "O=C(Nc1cccc2c1C(=O)c1c(-c3ccc(CN4CCN(c5cccc(C(F)(F)F)c5)CC4)cc3)n[nH]c1-2)NN1CCOCC1 [Compound B7]", "pIC50": "> 7.00"}
{"molecule": "Cc1cc(OCCN2CCOCC2)ccc1-c1[nH]nc2c1C(=O)c1c(NC(=O)NN3CCN(C)CC3)cccc1-2 [Compound A7]", "pIC50": "> 7.00"}
{"molecule": "CCN1CCN(S(=O)(=O)c2cc(Cl)c(-n3nc(C(C)C)c4c(=O)[nH]c(Cc5ccc(OCCN6CCOCC6)cc5)nc43)c(Cl)c2)CC1 [Compound A53]", "pIC50": "> 6.00"}

----------
Target: Cdc2/cyclin B (Homo sapiens, UniProt P06493)
Construct: purchased
Sequence (P06493 whole entry, species assumed): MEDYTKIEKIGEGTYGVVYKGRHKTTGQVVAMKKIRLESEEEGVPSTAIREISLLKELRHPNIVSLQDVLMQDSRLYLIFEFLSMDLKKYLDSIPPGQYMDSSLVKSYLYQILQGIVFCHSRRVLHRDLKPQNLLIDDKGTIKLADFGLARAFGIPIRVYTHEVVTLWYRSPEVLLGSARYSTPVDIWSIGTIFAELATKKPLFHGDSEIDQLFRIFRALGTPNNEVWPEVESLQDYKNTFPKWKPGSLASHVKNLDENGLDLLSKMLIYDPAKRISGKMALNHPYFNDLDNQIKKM
Sequence (P14635 whole entry partner, species assumed): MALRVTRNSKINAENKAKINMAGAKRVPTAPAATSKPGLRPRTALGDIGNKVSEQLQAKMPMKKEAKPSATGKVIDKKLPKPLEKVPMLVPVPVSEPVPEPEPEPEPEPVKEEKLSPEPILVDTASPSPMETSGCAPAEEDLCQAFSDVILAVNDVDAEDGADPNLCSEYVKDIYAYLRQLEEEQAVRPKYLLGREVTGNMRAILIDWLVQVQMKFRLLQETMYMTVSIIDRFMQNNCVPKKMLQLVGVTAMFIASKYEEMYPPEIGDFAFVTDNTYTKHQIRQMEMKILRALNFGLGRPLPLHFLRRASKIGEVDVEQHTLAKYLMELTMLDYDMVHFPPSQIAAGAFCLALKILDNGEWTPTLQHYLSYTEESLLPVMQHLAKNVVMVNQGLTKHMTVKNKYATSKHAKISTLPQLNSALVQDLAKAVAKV
Experiment: Biochemical kinase assay Cdc2/cyclin B
Details: Table 6
The following compounds are shown together with reported IC50 values.
readout_name: IC50

{"structure_as_smiles": "CC(C)c1nn(-c2c(Cl)cccc2Cl)c2nc(Cc3ccc(OCC(C)(C)O)cc3)[nH]c(=O)c12", "measured_target": "Cdc2/cyclin B (Homo sapiens, UniProt P06493)", "result": "< 100 nM"}
{"structure_as_smiles": "CCN1CCN(S(=O)(=O)c2cc(Cl)c(-n3nc(C(C)C)c4c(=O)[nH]c(Cc5ccc(OCCN6CCOCC6)cc5)nc43)c(Cl)c2)CC1", "measured_target": "Cdc2/cyclin B (Homo sapiens, UniProt P06493)", "result": "< 1000 nM"}
{"structure_as_smiles": "CC(C)c1nn(-c2c(Cl)cccc2Cl)c2nc(Cc3ccc(C(=O)NOCCN4CCOCC4)cc3)[nH]c(=O)c12", "measured_target": "Cdc2/cyclin B (Homo sapiens, UniProt P06493)", "result": "< 1000 nM"}
{"structure_as_smiles": "O=C(Nc1cccc2c1C(=O)c1c-2n[nH]c1-c1ccc(O)c(CN2CCOCC2)c1)NN1CCOCC1", "measured_target": "Cdc2/cyclin B (Homo sapiens, UniProt P06493)", "result": "< 10 nM"}

----------
Target: Cdk2/cyclin E (Homo sapiens, UniProt P24941)
Experiment: Biochemical kinase assay Cdk2/cyclin E
Details: Table 6
Procedure: Enzymes: Cdc2/cyclin B was obtained from commercial sources. Cdk2/his-cyclin Eshort was expressed in Sf9 cells. Cdk2/cyclin A, cdk4/cyclin D1, and cdk6/cyclin D2 were expressed in Sf9 cells. Protein kinase A (catalytic subunit, from bovine heart) and protein kinase C (mixed isozymes from rat brain) were obtained from commercial sources. […] Cdk2/cyclin E, Cdk2/cyclin A, Cdk4/cyclin D1, and Cdk6/cyclin D2 activity was determined using a glutathione-sepharose capture assay. […]
The following molecules are shown together with reported IC50 values.

{"molecule": "O=C(Nc1cccc2c1C(=O)c1c(-c3ccc(CN4CCN(CCO)CC4)cc3)n[nH]c1-2)NN1CCOCC1 [Compound B3]", "IC50": "< 100 nM"}
{"molecule": "Cc1cc(-c2[nH]nc3c2C(=O)c2c(NC(=O)NN4CCOCC4)cccc2-3)ccc1OCCN1CCN(C(C)C)CC1 [Compound A24]", "IC50": "< 10 nM"}
{"molecule": "Cc1nc(Cc2nc3c(c(C(C)C)nn3-c3c(Cl)cccc3Cl)c(=O)[nH]2)cs1 [Compound A58]", "IC50": "< 10 nM"}
{"molecule": "O=C(Nc1cccc2c1C(=O)c1c(-c3ccc(OCc4nnn[nH]4)cc3)n[nH]c1-2)NN1CCOCC1 [Compound A74]", "IC50": "< 100 nM"}
{"molecule": "Cc1cc(OCCN2CCN(C(C)C)CC2)ccc1-c1[nH]nc2c1C(=O)c1c(NC(=O)NN3CCN(C)CC3)cccc1-2 [Compound A19]", "IC50": "< 100 nM"}
{"molecule": "CN1CCN(NC(=O)Nc2cccc3c2C(=O)c2c-3n[nH]c2-c2ccc(OCC(=O)N3CCCC3)cc2)CC1 [Compound A44]", "IC50": "< 100 nM"}
{"molecule": "COc1ccc(Cc2nc3c(c(C(C)C)nn3-c3c(Cl)cccc3Cl)c(=O)[nH]2)cc1 [Compound A67]", "IC50": "< 10 nM"}
